target: hMOR-1 (Homo sapiens, UniProt P35372); construct: purchased Amersham Biosciences; host or cells: stably transfected CHO cells (membrane preparation); assay: Opioid receptor competitive binding assay, MOR (3H-DAMGO); settings: Ki MOR, Table 5; 3H-DAMGO, hMOR-1 stably transfected into CHO cells
Sequence (P35372 whole entry): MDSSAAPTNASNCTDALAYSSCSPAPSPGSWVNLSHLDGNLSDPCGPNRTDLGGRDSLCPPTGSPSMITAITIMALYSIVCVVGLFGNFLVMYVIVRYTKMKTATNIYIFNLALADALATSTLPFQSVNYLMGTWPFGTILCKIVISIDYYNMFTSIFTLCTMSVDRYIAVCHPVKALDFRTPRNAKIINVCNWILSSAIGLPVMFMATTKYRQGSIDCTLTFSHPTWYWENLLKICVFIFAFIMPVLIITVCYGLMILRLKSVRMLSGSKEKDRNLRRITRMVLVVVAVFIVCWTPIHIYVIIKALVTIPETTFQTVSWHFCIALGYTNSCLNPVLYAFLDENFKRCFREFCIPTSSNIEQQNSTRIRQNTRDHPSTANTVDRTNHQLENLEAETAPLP
Property: pKi; scope: individual molecules
Lab note: report pKi as minus log10 of the concentration in molar units, number only.

| molecule | assay.endpoint | readout.number |
| --- | --- | --- |
| NC(=O)C(Cc1ccccc1)NC(=O)C(Cc1ccccc1)C(O)/C=C/C(O)CC(N)Cc1ccc(O)cc1 (single isomer, unassigned) [(S, R, S, S)-43] | pKi | 7.38 |

Qu. For NC(=O)C(Cc1ccccc1)NC(=O)C(Cc1ccccc1)C(O)/C=C/C(O)CC(N)Cc1ccc(O)cc1 (single isomer, unassigned) [(R, S, R, R)-43] , what is its reported pKi?
Ans. 7.70

Qu. Another molecule to check: NC(=O)C(Cc1ccccc1)NC(=O)C(Cc1ccccc1)C(O)/C=C/C(O)CC(N)Cc1ccc(O)cc1 (single isomer, unassigned) [(S, R, R, S)-43]
Ans. 7.55

Qu. Next record, please: NC(=O)C(Cc1ccccc1)NC(=O)C(Cc1ccccc1)C(O)/C=C/C(O)CC(N)Cc1ccc(O)cc1 (single isomer, unassigned) [(S, S, R, S)-43]
Ans. 7.85

Qu. Queued: NC(=O)C(Cc1ccccc1)NC(=O)C(Cc1ccccc1)C(O)/C=C/C(O)CC(N)Cc1ccc(O)cc1 (single isomer, unassigned) [(S, R, S, R)-43]
Ans. 7.49

Qu. Queued: NC(=O)C(Cc1ccccc1)NC(=O)C(Cc1ccccc1)C(O)/C=C/C(O)CC(N)Cc1ccc(O)cc1 (single isomer, unassigned) [(R, R, S, S)-43]
Ans. 7.42

Qu. Proceed to NC(=O)[C@H](Cc1ccccc1)NC(=O)[C@H](Cc1ccccc1)NC(=O)[C@H]1CCCN1C(=O)[C@@H](N)Cc1ccc(O)cc1 [Compound 1, Endomorphin-2, reference compound]
Ans. 9.00

###

molecular target: hMOR-1 (Homo sapiens, UniProt P35372); construct: purchased Amersham Biosciences; host or cells: stably transfected CHO cells (membrane preparation); experiment: MOR GTP-γ-S assay (MOR activation); type: biochemical; settings: Table 15; compound 10 mM (footnote); percentage of DAMGO induced GTP-g-35S specific binding; CHO membranes with hMOR-1
Binary call on % GTP-γ-35S bound: rule met from 50% upward, rule not met beneath that.

| compound | label.class |
| --- | --- |
| Cc1cc(O)cc(C)c1CC(N)C(O)C/C=C/C(O)C(Cc1ccccc1)C(=O)NC(Cc1ccccc1)C(N)=O (single isomer, unassigned) [(S,R,S,R)-25] | rule not met |

Qu. # check: % GTP-γ-35S bound of Cc1cc(O)cc(C)c1CC(N)C(O)C/C=C/C(O)C(Cc1ccccc1)C(=O)OC(CO)Cc1ccccc1 [(S,S,S,R)-30] is greater than or equal to 50%
Ans. rule met

Qu. Now this one: Cc1cc(O)cc(C)c1CC(N)C(O)C/C=C/C(O)C(Cc1ccccc1)C(=O)NC(CO)Cc1ccccc1 [(S,S,S,R)-27]
Ans. rule not met

Qu. Now consider Cc1cc(O)cc(C)c1CC(N)C(O)C/C=C/C(O)C(Cc1ccccc1)C(=O)NCCc1ccccc1 (single isomer, unassigned) [(S,S,R,R)-26] .
Ans. rule not met

Qu. Could you do the same for Cc1cc(O)cc(C)c1CC(N)C(O)C/C=C/C(O)C(Cc1ccccc1)C(=O)NC(Cc1ccccc1)C(N)=O (single isomer, unassigned) [(S,S,R,S)-25] , please?
Ans. rule not met

The reported measurements were obtained from patent US7223888B2.
